Molecular target: T1, human NMI (N-myc Interacting protein) (human, UniProt Q13287 1-307, limits assumed)
T1 construct: Immunogen and ELISA coating antigen; also called hNMI; antigen 1
T1 sequence (looked up): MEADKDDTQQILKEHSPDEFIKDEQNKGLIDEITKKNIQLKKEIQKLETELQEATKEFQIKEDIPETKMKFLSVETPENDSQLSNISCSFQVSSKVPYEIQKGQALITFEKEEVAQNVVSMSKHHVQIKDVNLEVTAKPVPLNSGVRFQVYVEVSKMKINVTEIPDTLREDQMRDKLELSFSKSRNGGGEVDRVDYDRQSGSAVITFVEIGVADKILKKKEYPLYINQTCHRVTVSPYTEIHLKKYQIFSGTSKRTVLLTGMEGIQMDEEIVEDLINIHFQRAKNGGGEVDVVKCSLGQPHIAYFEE
Test: I-ELISA, hNMI coated 1 ug/mL; antibody 9.765625 ng/mL
Property: OD450 (OD450)
The reply should contain only the number, in OD450.

Quick check: OD450 of B-8 (antibody, V domains shown, Rabbit monoclonal antibody; also called B8-1; B-8-biotin (biotin-labelled form)) VH: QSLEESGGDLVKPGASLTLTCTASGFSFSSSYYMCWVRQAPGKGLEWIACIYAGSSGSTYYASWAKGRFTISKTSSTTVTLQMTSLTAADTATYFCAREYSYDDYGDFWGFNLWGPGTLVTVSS VL: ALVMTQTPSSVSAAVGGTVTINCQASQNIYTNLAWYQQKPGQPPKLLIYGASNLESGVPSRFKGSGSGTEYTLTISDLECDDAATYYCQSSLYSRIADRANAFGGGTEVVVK ?
0.243

# iterate: 94C4 (antibody, V domains shown, Rabbit monoclonal antibody; also called 94C4-1; 94C4-1-biotin (biotin-labelled form)) VH: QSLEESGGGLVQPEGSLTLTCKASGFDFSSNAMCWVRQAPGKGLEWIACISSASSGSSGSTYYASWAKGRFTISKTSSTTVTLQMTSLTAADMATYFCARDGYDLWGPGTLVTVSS VL: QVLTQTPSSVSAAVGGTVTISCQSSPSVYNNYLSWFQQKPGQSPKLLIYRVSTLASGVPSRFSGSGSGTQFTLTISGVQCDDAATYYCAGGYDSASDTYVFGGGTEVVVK
0.482
